Just for reference, paper PMC9320808 is where these values come from.

molecular target: PD-L1-6His-tag (Programmed cell Death Ligand 1) of the Cisbio Human PD1/PD-L1 biochemical binding assay (human); experiment: AlphaScreen or HTRF
endpoint.label: IC50 (nM)
Numbers only; they are read as nM.

Identify the reported IC50 for the following entry. natGa-WL12 (WL12 with DOTAGA on Orn13, loaded with natGa) (peptide) 12.4
